biological target: JAK2 (Homo sapiens); construct: 5 μl of catalytic domain recombinant Kinase enzyme+Tyr peptide substrate (Invitrogen, Calif.); test: Z'-LYTE kinase assay, JAK2 tyrosine phosphorylation activity
Sequence (O60674 849-1124 limits assumed): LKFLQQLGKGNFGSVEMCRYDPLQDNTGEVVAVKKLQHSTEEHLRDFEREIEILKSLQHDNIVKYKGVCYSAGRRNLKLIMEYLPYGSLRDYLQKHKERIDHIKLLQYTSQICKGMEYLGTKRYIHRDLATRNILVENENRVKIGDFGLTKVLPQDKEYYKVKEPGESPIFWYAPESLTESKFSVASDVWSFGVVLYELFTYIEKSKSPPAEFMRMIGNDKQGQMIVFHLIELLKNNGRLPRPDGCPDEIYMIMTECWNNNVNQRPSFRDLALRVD
pIC50: −log10 of the molar value.
// values below are reported pIC50

[
  {
    "COMPOUND": "CNC(=O)Nc1cc(Nc2ncc(C(N)=O)c(N[C@H](C)c3ccccc3)n2)ccc1Cl",
    "pIC50": "6.00 to 7.00"
  },
  {
    "COMPOUND": "CCC(C)CNc1nc(Nc2ccc(Cl)c(NC(=O)N3CCCC3)c2)ncc1C(N)=O (stereo not drawn)",
    "pIC50": "6.00 to 7.00"
  },
  {
    "COMPOUND": "COCC(=O)Nc1cccc(Nc2ncc(C(N)=O)c(NCC(F)(F)F)n2)c1",
    "pIC50": "7.00 to 8.00"
  }
]
